Origin of values: ChEMBL document CHEMBL3885861

species on record: Rattus norvegicus; experiment: Open TG-GATES - Regimen: Daily Repeat; format: toxicity, organism-based, Sprague-Dawley; parameters: regimen Daily Repeat, gender Male, age 6 weeks; details: in vivo, po, 0 mg/kg, […], tissue Plasma, route gavage, dose level Control, time 28 day
Parameter A/G: see the listing below.
I only need the number, thanks.

Consider the worked cases shown below.
                                   compound  quantity_kind  meas_value
0  C[C@]12CCC(=O)C=C1CC[C@@H]1[C@@H]2CC[C@@]2(C)[C@H]1CC[C@]2(C)O            A/G         0.8
1     CCc1oc2ccccc2c1C(=O)c1cc(I)c(O)c(I)c1            A/G         1.5
2         CC(=O)Oc1cc(C(C)C)c(OCCN(C)C)cc1C            A/G         1.1
3                       CCSCC[C@H](N)C(=O)O            A/G         1.3

get_value(item= CN1C(=O)OC(C)(C)C1=O , readout=A/G) returns 0.8

get_value(item= CC(=N)S [THIOACETAMIDE] , readout=A/G) returns 1.9

get_value(item= C[C@](N)(Cc1ccc(O)c(O)c1)C(=O)O , readout=A/G) returns 0.8

get_value(item= CCN1CCCC1CNC(=O)c1cc(S(N)(=O)=O)ccc1OC (configuration not stated) [SULPIRIDE] , readout=A/G) returns 0.8

get_value(item= Nc1nc(N)c2nc(-c3ccccc3)c(N)nc2n1 , readout=A/G) returns 0.8

get_value(item= CC(C)C(=O)Nc1ccc([N+](=O)[O-])c(C(F)(F)F)c1 [FLUTAMIDE] , readout=A/G) returns 1.4

get_value(item= O=C(N[C@H](CO)[C@H](O)c1ccc([N+](=O)[O-])cc1)C(Cl)Cl , readout=A/G) returns 0.8

get_value(item= CC(C)(S)[C@@H](N)C(=O)O , readout=A/G) returns 0.9
